tested on: SK-OV-3; assay: NCI tumour cell line growth inhibition, 48 h
Calls of active or inactive are those of the source. Cut-off read from the data, not from the text of the source: active = GI50 up to about 1.1 µM and inactive = higher.
attribute-measured: GI50

-- ask Report GI50, nothing else, for this molecule: CCOP(=O)(OCC)/C(C#N)=C/c1[nH]cnc1C
-- reply > 100 µM (inactive)

-- ask Report GI50, nothing else, for this molecule: C=C=C(Sc1ccccc1)C(C)(C)O
-- reply > 100 µM (inactive)

-- ask Report GI50, nothing else, for this molecule: C/C(=N\NC(=S)NCCNC(=S)N/N=C(\C)c1ccccn1)c1ccccn1
-- reply 4.7 µM (inactive)

-- ask Report GI50, nothing else, for this molecule: COc1cc2c(cc1OC)C1Cc3cc(OC)c(OC)cc3N1CC2 (stereo unspecified)
-- reply 31.6 µM (inactive)

-- ask Report GI50, nothing else, for this molecule: CCCC(CCN)(CCN)[N+](=O)[O-]
-- reply > 100 µM (inactive)

-- ask Report GI50, nothing else, for this molecule: C[n+]1ccc(Nc2ccc(NC(=O)c3ccc(Nc4cc[n+](C)c5ccc([N+](=O)[O-])cc45)cc3[N+](=O)[O-])cc2)cc1
-- reply 57.8 µM (inactive)

---

For each of the compounds below, state its GI50.
system: EKVX; assay: NCI tumour cell line growth inhibition, 48 h
Calls of active or inactive are those of the source. Cut-off read from the data, not from the text of the source: active = GI50 up to about 1.1 µM and inactive = higher.

-- ask Report GI50, nothing else, for this compound: COC(=O)C1C(C(=O)OC)C2(OC)c3ccccc3-c3ccccc3C12 (stereo not given)
-- reply 28.7 µM (inactive)

-- ask Report GI50, nothing else, for this compound: CC(=O)c1cccc(NC(=O)/C(=N\NC(C)(C)C)c2c(O)c3ccccc3oc2=O)c1
-- reply > 100 µM (inactive)

-- ask Report GI50, nothing else, for this compound: O=c1cc(-c2ccc(O)cc2)oc2cc(O[C@@H]3O[C@H](CO)[C@@H](O)[C@H](O)[C@H]3O)cc(O)c12
-- reply > 100 µM (inactive)

-- ask Report GI50, nothing else, for this compound: C=C[C@]1(C)CCC2=C(CCC3C2(C)CCC[C@]3(C)CO)C1 (stereo not given in full)
-- reply 51.9 µM (inactive)

-- ask Report GI50, nothing else, for this compound: O=[N+]([O-])C(=C1c2ccccc2-c2ccccc21)[N+](=O)[O-]
-- reply > 100 µM (inactive)

-- ask Report GI50, nothing else, for this compound: O=c1ccc2ccc(CBr)cc2o1
-- reply 2.49 µM (inactive)

-- ask Report GI50, nothing else, for this compound: CSC(C1c2ccccc2N(c2ccc(C)cc2)C2=NC(=O)N(C)C(=O)C21Cl)S(=O)(=O)c1ccc(C)cc1 (stereo not given)
-- reply 35.4 µM (inactive)

-- ask Report GI50, nothing else, for this compound: CCCCCCC(=O)OC[n+]1cccc(-c2c(COC(=O)NC(C)C)c(COC(=O)NC(C)C)c3n2CCC3)c1
-- reply > 100 µM (inactive)

-- ask Report GI50, nothing else, for this compound: CS(=O)(=O)Oc1cccc(/C=N/N=C(\N)NO)c1
-- reply 34 µM (inactive)

-- ask Report GI50, nothing else, for this compound: CC(C)(CO)CNc1cc(Cl)nc(N)n1
-- reply > 100 µM (inactive)

-- ask Report GI50, nothing else, for this compound: CN1N(c2ccccc2)C(=O)C2=NC=C(C#N)C(=N)C21C (stereo not given)
-- reply > 100 µM (inactive)

-- ask Report GI50, nothing else, for this compound: CC(=O)Oc1ccc(/C=C/C(=O)NCC(NC(=O)/C=C/c2ccc(OC(C)=O)c(OC(C)=O)c2)C(=O)O)cc1OC(C)=O (stereo not given)
-- reply > 100 µM (inactive)

-- ask Report GI50, nothing else, for this compound: O=c1cc(NNc2ccccc2)[nH]c(=S)[nH]1
-- reply 98.9 µM (inactive)

-- ask Report GI50, nothing else, for this compound: CNC(=O)C1(C#N)C(c2ccccc2)C(C#N)(C(=O)NC)C1c1ccccc1 (stereo not given)
-- reply > 100 µM (inactive)

-- ask Report GI50, nothing else, for this compound: CCC1C(C(=O)Nc2ccccc2C)=C(C)NC(C)=C1c1ccccc1C (stereo not given)
-- reply > 100 µM (inactive)

-- ask Report GI50, nothing else, for this compound: Fc1ccc(C(OCCN2CC3CCC(C2)N3CCCc2ccccc2)c2ccc(F)cc2)cc1
-- reply 4.06 µM (inactive)

-- ask Report GI50, nothing else, for this compound: Cc1occ2c1C(=O)CC1C2[C@@H](O)CC2C(C)(C)CCC[C@]12C (stereo not given in full)
-- reply > 100 µM (inactive)

-- ask Report GI50, nothing else, for this compound: COc1cc(CCc2ccncc2)cc(OC)c1OC
-- reply > 100 µM (inactive)

-- ask Report GI50, nothing else, for this compound: Nc1ccn(C2OC(COP(=O)(O)O)C(O)C2O)c(=O)n1 (stereo not given)
-- reply > 100 µM (inactive)

-- ask Report GI50, nothing else, for this compound: CC(=O)O[C@@H]1C2=C(C)C=C(O2)[C@H]2O[C@]2(C)C[C@H]2C=C(C(=O)O2)[C@H](OC(C)=O)CC1[C@@]1(C)CO1 (stereo not given in full)
-- reply 26.2 µM (inactive)

Source of measurements: ChEMBL document CHEMBL1201862
